endpoint: melting point

Example entries and their recorded answers appear below.
COC(=O)NCc1cc(-c2ccn(-c3c(F)cc(Br)cc3F)n2)ccc1C :: 138 to 139 °C
COC(=O)NCc1cc(-c2ccn(-c3c(F)cc(C(=O)OC)cc3F)n2)ccc1C :: 120 to 122 °C
COC(=O)NCc1cc(-c2ccn(-c3c(F)cc([N+](=O)[O-])cc3F)n2)ccc1C :: 131 to 134 °C
COC(=O)NCc1cc(-c2ccn(-c3c(F)cc(O)cc3F)n2)ccc1C :: 178 to 180 °C
COC(=O)NCc1cc(-c2ccn(-c3c(F)cc(OC(C)C)cc3F)n2)ccc1C :: 133 to 134 °C

Provide melting point values for the following items, in order.
1. COC(=O)NCc1cc(-c2ccn(-c3c(F)cc(CO)cc3F)n2)ccc1C
2. COC(=O)NCc1cc(-c2cnn(-c3c(F)cc([N+](=O)[O-])cc3F)n2)ccc1C
3. COC(=O)NCc1cc(-c2ccn(-c3c(F)cc(N)cc3F)n2)ccc1C

Completion:
183 to 184 °C
152 to 156 °C
168 to 171 °C

Data provenance is patent US20240324596A1.
